- assayed_target: T1, Histidine-tagged human soluble CD27L (human, UniProt P32970 39-193)
- T1 construct: also called Hu CD27L-his; soluble human CD27L-his; not shown: histidine tag
- T1 sequence: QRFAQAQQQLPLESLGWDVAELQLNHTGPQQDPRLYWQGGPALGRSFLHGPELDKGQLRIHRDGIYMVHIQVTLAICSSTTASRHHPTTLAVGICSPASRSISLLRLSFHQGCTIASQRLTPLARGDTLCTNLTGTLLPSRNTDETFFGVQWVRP
- test_summary: BIACORE 3000, antibody captured by goat anti-human IgG on a CM5 chip, Hu CD27L-his as analyte (column 'Affinity Hu Biacore KD nM')
Let's look at some binders and their measured Kd.
Could you give me the number in nM? Just the number is fine.

- binder: "Ab3 (antibody, IgG1, V domains shown, Tested as hybridoma supernatant) VH: EVQLLESGGGLVQPGGSLRLSCAASGFTFSSYAMSWVRQAPGKGLEWVSVISDSGGTTDYADSVKGRFTISRDNSKNTLYLQMNSLRAEDTAVYYCARHDYSNRYYFDYWGQGTLVTVSS VL: EIVLTQSPGTLSLSPGERATLSCRASQSFSSNYLAWYQQKPGQAPRLFIYGASSRATGIPDRFSGSGSGTDFTLTISRLEPEDFAVYFCQQYGISPCSFGQGTKLEIK"
  unit_annotation: "nM"
  meas_value: 4.35
- binder: "Ab4 (antibody, human IgG1, kappa, V domains shown, Fully human IgG1; also called A4; unconjugated parental Ab4) VH: QVQLVESGGGVVQPGRSLRLSCAASGFTFSNYGIHWVRQAPGKGLEWVAVIWYDGSNKYYADSVKGRFTISRDNSKNTLYLQMNSLRAEDTAVYYCARDGGYSGYDSGFDYWGQGTLVTVSS VL: DIVMTQSPLSLPVTPGEPASISCRSSQSLLNSNGYNYLDWYLQKPGQSPQFLIYLGSYRASGVPDRFSGSGSGTDFTLRISRVEAEDVGVYYCIQTLQTPFTFGPGTKVDIKR"
  unit_annotation: "nM"
  meas_value: 3.05

// query Entry under review: Ab5 (antibody, human IgG1, kappa, V domains shown, Fully human IgG1 from XenoMouse hybridoma) VH: QVQLVQSGAEVKKPGASVKVSCKASGYTFTSYDINWVRQATGQGLEWMGWMNPNSGNTGYAQKFQGRVTMTRNTSISTAYMELSSLRSEDTAVYYCARGYDFWSGYYYYYYGMDVWGQGTTVTVSS VL: EIVLTQSPGTLSLSPGERATLSCRASQSVSSSYLAWYQQRPGQAPRLLIYGASSRATGIPDRFSGSGSGTDFTLTISSLEPEDFAVYYCLQSGSSVPLTFGGGTKVEIKR . Reported Kd?
// result 10.4

Values from patent US20130078237A1
